Numbers sourced from PubChem BioAssay AID2060903.

test system: 377384-186-R-J1-PDC complex spheroid viability; assay: Anticancer human tumor 377384-186-R-J1-PDC patient-derived pancreatic carcinoma cell line growth inhibition [RAS]; conditions: second compound 0.0949 µM; first compound 0.000949 µM; active = viability on the fitted dose curve at most 10% of control; inactive = the rest;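 also: spheroids exposed to compounds for seven days before readout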
Write down the outcome that applies. Available outcomes: active, inactive

In this assay, the call recorded for CC1(C)CCC(Nc2ncc(C(F)(F)F)c(-c3c[nH]c4c(P(C)(C)=O)c(C#N)ccc34)n2)CN1 (centres undefined) + CCn1c(-c2cccnc2C(C)OC)c2c3cc(ccc31)N1CCOC(CC(NC(=O)C(C(C)C)N(C)C(=O)C3(F)CCN(C(=O)C#CC(C)(C)N(C)C)CC3)C(=O)N3CCCC(N3)C(=O)OCC(C)(C)C2)C1 was what?
inactive

In this assay, the call recorded for CCc1c2c(nc3ccc(O)cc13)-c1cc3c(c(=O)n1C2)COC(=O)[C@]3(O)CC + CCn1c(-c2cc(N3CCN(C)CC3)cnc2C(C)OC)c2c3cc(ccc31)-c1csc(n1)CC(NC(=O)C1CC1C)C(=O)N1CCCC(N1)C(=O)OCC(C)(C)C2 was what?
active

In this assay, the call recorded for CCc1c2c(nc3ccc(O)cc13)-c1cc3c(c(=O)n1C2)COC(=O)[C@]3(O)CC + CCn1c(-c2cccnc2C(C)OC)c2c3cc(ccc31)N1CCOC(CC(NC(=O)C(C(C)C)N(C)C(=O)C3(F)CCN(C(=O)C#CC(C)(C)N(C)C)CC3)C(=O)N3CCCC(N3)C(=O)OCC(C)(C)C2)C1 was what?
inactive

In this assay, the call recorded for CC1(C)CCC(Nc2ncc(C(F)(F)F)c(-c3c[nH]c4c(P(C)(C)=O)c(C#N)ccc34)n2)CN1 (centres undefined) + CCn1c(-c2cc(N3CCN(C)CC3)cnc2C(C)OC)c2c3cc(ccc31)-c1csc(n1)CC(NC(=O)C1CC1C)C(=O)N1CCCC(N1)C(=O)OCC(C)(C)C2 was what?
active
